Where do the numbers come from? From patent US9512075B2.

Listing: MIC of selected compounds
- Test system: Staphylococcus aureus MRSA No. 17 (methicillin-resistant Staphylococcus aureus: MRSA)
- protocol_summary: MIC for Staphylococcus aureus MRSA No. 17
- Type: cell-based
- condition_description: MRSA No. 17, regular bouillon medium, 37° C. overnight, turbidity, read-out: MIC Straphyrococcus aureus MRSA No. 17 (MRSA)
measured_metric: MIC

compound | reported_result
CCCCC1CCC(C(O)=C2C(=O)N(C(=O)OC(C)(C)C)c3ccccc32)CC1 (centres unmarked) | 256 µg/mL
CCCCCCCCCCOC(C)C(O)=C1C(=O)N(C(=O)Nc2ccccc2)c2ccccc21 (centres unmarked) | 256 µg/mL
CCCCCCCCCC(O)=C1C(=O)Nc2ccc(F)cc21 | 32 µg/mL
CCCCCCCCCCSCC(O)=C1C(=O)N(C(=O)Nc2ccccc2)c2ccc(F)cc21 | 2 µg/mL
CCCCCCCCCCOCC(O)=C1C(=O)N(C(C)=O)c2ccccc21 | 256 µg/mL
CCCCCCCCCCOCC(O)=C1C(=O)N(C(=O)Nc2ccc(OC)cc2)c2ccc(F)cc21 | 128 µg/mL
CCCCCCCCCCOCC(O)=C1C(=O)N(C(=O)Nc2ccccc2)c2ccccc21 | 256 µg/mL
O=C(Nc1ccccc1)N1C(=O)C(=C(O)CCCCCCCCCBr)c2ccccc21 | 256 µg/mL
CCCCCCCCCC(O)=C1C(=O)N(C(=O)Nc2ccccc2)c2ccc(Br)cc21 | 256 µg/mL
CCCCCCCCNC(=O)c1c(O)c2cc(F)ccc2oc1=O | 256 µg/mL
CCCCCCCCCC(O)=C1C(=O)N(C(=O)Nc2ccc(OC)cc2)c2ccccc21 | 256 µg/mL
CCCCCCCCCC(O)=C1C(=O)N(C)c2ccccc21 | 128 µg/mL
CCCCCCCCC(O)=C1C(=O)N(C(=O)Nc2ccccc2)c2ccc(F)cc21 | 64 µg/mL
CCCCCCCCCC(O)=C1C(=O)N(C(=O)Nc2ccc(Br)cc2)c2ccccc21 | 256 µg/mL
CCCCCCCCCCOCC(O)=C1C(=O)N(C(=O)Nc2ccc(OC)cc2)c2ccccc21 | 256 µg/mL
CCCCCCCCCC(O)=C1C(=O)N(C(=O)Nc2ccccc2)c2ccc(F)cc21 | 256 µg/mL
CC(C)[C@H]1CC[C@H](C)CC1OCC(=O)c1c(O)c2ccccc2oc1=O (stereo in doubt) [B006, 4-hydroxy-3-menthyloxyacetylcoumarin] | 2 µg/mL
